target: mPGES-1 Mouse enzyme (Mus musculus)
Construct: made in house; host or cells: FreeStyle 293-F cells, crude microsomal preparation
Sequence (Q9JM51 1-153): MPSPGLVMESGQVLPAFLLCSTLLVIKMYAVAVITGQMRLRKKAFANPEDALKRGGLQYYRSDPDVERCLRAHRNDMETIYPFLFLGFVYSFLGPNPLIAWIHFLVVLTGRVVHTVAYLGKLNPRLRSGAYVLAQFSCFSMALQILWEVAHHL
procedure_text: mPGES-1 enzyme activity assay (PGE2 enzyme immunoassay), mouse enzyme
Assay type: biochemical
conditions_used: compound at a concentration of 10 μM; read-out: % inhibition of the compound against mPGES-1, Mouse enzyme
# if value of inhibition at 10 µM reaches 40%, tag t; if it stays below, tag f

> print(dat)
                              smiles.string  label
1  O=C1NC(=O)C(=Cc2ccc(OCC3CCCCC3)c([N+](=O)[O-])c2)C(=O)N1      t
2  O=C1NC(=O)/C(=C2/C(=O)N(CCCC3CCCCC3)c3ccccc32)S1      f
3  CN1C(=O)C(=Cc2ccc(OCCCC3CCCCC3)c(Cl)c2)C(=O)N(C)C1=O      f
4  O=C(O)CN1C(=O)S/C(=C2\C(=O)N(Cc3ccccc3)c3ccccc32)C1=O      f
5  O=C(O)CN1C(=O)S/C(=C2\C(=O)Nc3ccc(-c4ccccc4)cc32)C1=O      t
6  CCCCCCOc1ccc(-c2nn(-c3ccc(Cl)cc3)cc2/C=C2\SC(=O)N(CC(=O)O)C2=O)cc1      f
7  CCCCCCCCOc1ccc(-c2nn(-c3ccccc3)cc2/C=C(/C#N)C(=O)O)cc1      t

====

target: mPGES-1 (Homo sapiens)
procedure_text: mPGES-1 enzyme activity assay (PGE2 enzyme immunoassay), human enzyme
Type: biochemical
Set-up: made in house; host or cells: FreeStyle 293-F cells, crude microsomal preparation
conditions_used: IC50 against mPGES-1, Human enzyme, recombinant microsomal enzyme; means ± SD, triplicate
pIC50: −log10 of the molar value.
Label Criterion met for high-side pIC50 (at or above 7) and Criterion not met for low-side pIC50 (below it).

> print(dat)
                                   compound              label
1  O=C1NC(=O)C(=Cc2ccc(OCCCCC3CCCCC3)c([N+](=O)[O-])c2)C(=O)N1 [Compound I-23]      Criterion met
2  O=C1NC(=O)C(=Cc2ccc(OCC3CCCCC3)c([N+](=O)[O-])c2)C(=O)N1  Criterion not met
3  CCCCCCCCCCOc1ccc(-c2nn(-c3ccccc3)cc2C=C2C(=O)NC(=S)NC2=O)cc1  Criterion not met
4  COc1cc(C=C2C(=O)NC(=O)NC2=O)cc(I)c1OCCCCC1CCCCC1      Criterion met
5  O=C1NC(=S)NC(=O)C1=Cc1cn(-c2ccccc2)nc1-c1ccc(OCc2ccccc2)cc1  Criterion not met
6  CN1C(=O)C(=Cc2ccc(OCCCCC3CCCCC3)c(Cl)c2)C(=O)N(C)C1=O  Criterion not met

====

target: mPGES-1 (Homo sapiens)
Sequence (O14684 1-152): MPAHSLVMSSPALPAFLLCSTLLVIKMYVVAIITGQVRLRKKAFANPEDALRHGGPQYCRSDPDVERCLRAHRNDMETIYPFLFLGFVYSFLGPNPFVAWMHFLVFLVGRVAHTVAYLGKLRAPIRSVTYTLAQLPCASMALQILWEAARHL
procedure_text: mPGES-1 enzyme activity assay (PGE2 enzyme immunoassay), human enzyme
Assay type: biochemical
Design: made in house; host or cells: FreeStyle 293-F cells, crude microsomal preparation
conditions_used: IC50 against mPGES-1, Human enzyme, recombinant microsomal enzyme; means ± SD, triplicate
pIC50: −log10 of the molar value.
measure: pIC50

> print(dat)
                                    compound  observed
 1  O=C1NC(=O)C(=Cc2ccc(OCCCC3CCCCC3)c([N+](=O)[O-])c2)C(=O)N1 [Compound I-26]      6.81
 2  CCCCCCCCCOc1ccc(C=C2C(=O)NC(=O)NC2=O)cc1[N+](=O)[O-]      6.73
 3  O=C1NC(=O)C(Cc2ccc(OCCCCC3CCCCC3)c([N+](=O)[O-])c2)C(=O)N1      6.87
 4  CCCCCCCCCCOc1ccc(-c2nn(-c3ccccc3)cc2C=C2C(=O)NC(=O)NC2=O)cc1      6.43
 5  O=C1NC(=O)C(=Cc2ccc(OCCCCC3CCCCC3)c(Cl)c2)C(=O)N1      7.55
 6  CCOc1cc(C=C2C(=O)NC(=O)NC2=O)ccc1OCCCCC1CCCCC1      6.73
 7  O=C1NC(=O)C(=Cc2ccc(OCCCOc3ccc4ccccc4c3)c(Cl)c2)C(=O)N1      6.44
 8  O=C1NC(=O)C(=Cc2ccc(OCCCOc3ccccc3)c(Cl)c2)C(=O)N1      6.46
 9  O=C1NC(=O)C(=Cc2ccc(OCCCOc3ccc(-c4ccccc4)cc3)c(Cl)c2)C(=O)N1      6.47
10  O=C1NC(=O)C(=Cc2ccc(OCCCC3CCCCC3)c(Cl)c2)C(=O)N1 [Compound I-24]      6.96
11  O=C1NC(=O)C(=Cc2ccc(OCCCCC3CCCCC3)c(Br)c2)C(=O)N1 [Compound I-22]      7.70
12  O=C1NC(=O)C(=Cc2ccc(OCCCCC3CCCCC3)c(Br)c2)C(=O)N1 [Compound I-03]      7.35
13  COc1cc(C=C2C(=O)NC(=O)NC2=O)ccc1OCCCCC1CCCCC1      6.92
14  O=C1NC(=O)C(=Cc2cn(-c3ccccc3)nc2-c2ccc(OCc3ccccc3)cc2)C(=O)N1      6.22
15  O=C1NC(=O)C(=Cc2ccc(OCCCC3CCCCC3)c(Br)c2)C(=O)N1 [Compound I-25]      6.98
16  O=C1NC(=O)C(=Cc2ccc(OCCCC3CCCCC3)c(Cl)c2)C(=O)N1 [Compound I-30]      7.11
17  CN1C(=O)C(=Cc2ccc(OCCCCC3CCCCC3)c([N+](=O)[O-])c2)C(=O)N(C)C1=O      6.25

// data source = patent US12030877B2
